test system: MALME-3M melanoma; assay: NCI-60 one-dose screen, 48 h (100 = growth as untreated, 0 = no growth, -100 = all killed); conditions: 10 µM unless noted
Compounds without any hit were thinned out: in the full panel of roughly 83,000, 20% have a hit. Calls of active or inactive are those of the source. The calls were made as follows: active = growth percent below 10; inactive = the rest. Where a SMILES comes first, the peptide text is derived from it. The star is where a group is joined. Trt = c1ccc(C(c2ccccc2)(c2ccccc2)*)cc1; Cbz = O=C(OCc1ccccc1)*
readout.name: growth

Q. What growth value was documented for this compound, CNC(=O)N/N=C/c1ccc([N+](=O)[O-])o1 ?
A. 112% (inactive)

Q. Can you check O=C1C2=C(Nc3cc([N+](=O)[O-])ccc3N2)OC1c1c2ccccc2cc2ccccc12 (stereo not drawn) next?
A. 97.9% (inactive)

Q. Proceed to O=C(CC1(O)C(=O)Nc2c(Cl)ccc(Cl)c21)c1ccc(Cl)cc1Cl (stereo not drawn)
A. 100% (inactive)

Q. Moving on to the next compound: COC(=O)C(CSC(c1ccccc1)(c1ccccc1)c1ccccc1)NC(=O)C(CC(N)=O)NC(=O)OCc1ccccc1 (stereo not drawn) (Cbz-Asn-Cys(Trt)-OMe; configuration not given here)
A. 27.1% (inactive)

Q. Here is the next compound: CC(C)(C)c1ccc(O)c(C2CCCCC2)c1
A. 115% (inactive)

Q. Check CCN(CC)CC(C)(C)C(=O)/C=C/c1ccc(Cl)c(Cl)c1 too.
A. -52.7% (active)

Q. Another compound: N#Cc1ccc([N+](=O)[O-])o1
A. 118% (inactive)

Q. Follow-up entry: CC(=O)C(=Cc1ccc(C=C(C(C)=O)C(C)=O)cc1)C(C)=O
A. -18.6% (active)

Q. Do the same for CCC(c1cccc(O)c1)C(CC)c1cccc(O)c1 (stereo not drawn) please
A. 54.8% (inactive)

Q. Input CN(Cc1cnc2nc(N)nc(N)c2n1)c1ccc(C(=O)NC(CCC(=O)O)C(=O)O)cc1 (stereo not drawn)
A. 43.8% (inactive)

Q. CN(C)c1ccc(C(=C2C=CC(=[N+](C)C)C=C2)c2ccc(N(C)C)cc2)cc1 (tested in a mixture with another compound) , same question.
A. -62.7% (active)

Q. Would you kindly repeat that for O=C1OCc2cccc3cccc1c23 ?
A. 107% (inactive)

Q. Do the same for Oc1c(Br)cc(Cl)cc1C(c1cc(Cl)cc(Br)c1O)C(Cl)(Cl)Cl please
A. -0.8% (active)

Q. Note, next up: CC(C)c1ccc2nc3ccc(C(=O)NCCN4CCN(c5ccccc5)CC4)cn3c(=O)c2c1
A. 48.3% (inactive)

Q. Repeat with CNc1ccc(N)cc1
A. 98.1% (inactive)

Q. Similarly, CCCCCC(CCCCC)C(=O)O ?
A. 119% (inactive)

Q. Same again, this time with N[C@H](C(=O)O)[C@@H]1CC(Cl)=NO1
A. 33.5% [20 µM] (inactive)

Q. Same again, this time with O=[N+]([O-])c1ccc(N=Nc2ccc(O)cc2O)cc1
A. 72.5% (inactive)

Q. Now consider CCC1OC(OC)C=CC1=O (stereo not drawn) .
A. 99.9% (inactive)

Q. Param item: O=C(/C=C\c1cc(Br)ccc1O)/C=C/c1cc(Br)ccc1O
A. -5.41% (active)

Q. Further, for CC(=O)ON=C1C=CC(=C(C#N)c2ccccc2)C=C1 ?
A. 83.3% (inactive)

Q. Quick one: O=C(/C=C\c1ccccc1)N1c2ccccc2CC1c1c[nH]c2ccccc12 (stereo not drawn)
A. 85.4% (inactive)

Q. Another compound to look at: OC(CNc1ccnc2cc(Cl)ccc12)CNc1ccnc2cc(Cl)ccc12
A. -77.9% (active)

Q. And what about the compound NC(N)=N/N=C/c1ccc([N+](=O)[O-])o1 ?
A. 68.1% (inactive)

Q. Now consider CC1(C)CC([P+](c2ccccc2)(c2ccccc2)c2ccccc2)=NN1 and answer again.
A. 21.2% (inactive)

Q. Do the same for CN(C)c1ccc(N=Nc2cccc3ccccc23)cc1 please
A. 101% (inactive)

Q. Can you handle O=C1c2cccnc2-c2nccc3c2c1nc1cc(Br)ccc13 next?
A. 8.18% (active)

Q. # iterate: COC(=O)[C@@]12OC[C@]34[C@H]([C@@H](O)[C@@H]1O)[C@@]1(C)[C@H](O)C(=O)C=C(C)[C@@H]1C[C@H]3OC(=O)C(OC(C)=O)[C@@H]24 (stereo partly drawn)
A. -70.1% (active)

Q. Then what about the compound N#CC1C(=O)SC2c3ccccc3C(=O)c3ccccc3C12 (stereo not drawn) ?
A. 101% (inactive)

Q. Param item: Cc1ccnc(NC(c2ccccc2)c2ccc3cccnc3c2O)c1 (stereo not drawn)
A. 62.4% (inactive)

Q. Repeat with CC1OC2CC(=O)OC2C2=C1C(=O)c1c(O)cccc1C2=O (stereo not drawn)
A. -77.4% (active)

Q. Moving on to the next compound: CCCCCCC(C)c1ccccc1O (stereo not drawn) (tested in a mixture with another compound)
A. 106% (inactive)

Q. What do you get for Cc1ccc(C(=Nc2ccccc2)N=P(c2ccccc2)(c2ccccc2)c2ccccc2)cc1 ?
A. -67.8% (active)

Q. Please give the result for Nc1nc(N)c2c(ccc3c2ccn3Cc2cccc([N+](=O)[O-])c2)n1 too.
A. -82.7% (active)

Q. Quick one: CCC(=O)Sc1ccccc1C(=O)Nc1ccc(Cl)cc1
A. 6.61% (active)

Q. Check CCC(CCCN(CC)CCc1ccccc1)OC(=O)c1cc(OC)c(OC)c(OC)c1 (stereo not drawn) too.
A. 98.9% (inactive)

Q. Moving on to CCN(CC)CCOc1ccc(-c2nc3cc(Cl)ccc3s2)cc1
A. 28.7% (inactive)

Q. Query O=C(O)c1ccc2c3c(ncnc13)-c1ccccc1C2=O next
A. -68.6% (active)

====

System: NCI-H23 lung
Test: NCI-60 one-dose screen, 48 h (100 = growth as untreated, 0 = no growth, -100 = all killed)
Details: 10 µM unless noted
Protocol: Growth inhibition of the NCI-H23 human Non-Small Cell Lung tumor cell line is measured as a screen for anti-cancer activity. Cells are grown in 96 well plates and exposed to the test compound for 48 hours. Compounds are tested at a single concentration, which is 10^-5 M for most compounds. The reported endpoint is percent growth (GI% or GIPRCNT), where numbers from 0 - 100% represent growth inhibition, and numbers from -100% - 0 represent cell death. […]
Compounds without any hit were thinned out: in the full panel of roughly 83,000, 20% have a hit. Where a SMILES comes first, the peptide text is derived from it. The star is where a group is joined. Trt = c1ccc(C(c2ccccc2)(c2ccccc2)*)cc1; Cbz = O=C(OCc1ccccc1)*
Use criterion met when the recorded growth is no lower than 80%; use criterion not met when it is lower.

Q. Could you please find out whether Cc1ccnc2c1ccc1c(C)ccnc12 has growth that meets 80% or exceeds it?
A. criterion not met

Q. // next record CCCCCCC(C)c1ccccc1O (stereo not given) (tested in a mixture with another compound)
A. criterion met

Q. Try the compound CNc1ccc2c(c1)c1ccccc1n2C
A. criterion met

Q. Same question for Cc1ccc2nc(C[n+]3ccc4ccccc4c3)ccc2c1 please.
A. criterion not met

Q. // query: COC(=O)c1nc(=S)[nH]c(C(=O)OC)c1C(=O)c1ccc2ccccc2c1
A. criterion met

Q. And for CC(C)c1ccc2nc3ccc(C(=O)NCCN4CCN(c5ccccc5)CC4)cn3c(=O)c2c1 ?
A. criterion not met

Q. How about COc1ccc2nc3cc(Cl)ccc3c(NCCNc3c4ccc(Cl)cc4nc4ccc(OC)cc34)c2c1 ?
A. criterion not met

Q. Same question for OC(CNc1ccnc2cc(Cl)ccc12)CNc1ccnc2cc(Cl)ccc12 please.
A. criterion not met

Q. Try this compound next: COC(=O)C(CSC(c1ccccc1)(c1ccccc1)c1ccccc1)NC(=O)C(CC(N)=O)NC(=O)OCc1ccccc1 (stereo not drawn) (Cbz-Asn-Cys(Trt)-OMe; configuration not given here)
A. criterion not met

Q. Please give the result for CCCCCCCCCCCCCCCCOP(=O)([O-])OCC[N+](C)(C)C too.
A. criterion not met

Q. Then CCOC(=O)c1c(C)[nH]c(CO)c1C ?
A. criterion met

Q. Queued: C=CCOc1ccc(N=NC(C#N)C#N)cc1
A. criterion not met

Q. Please answer likewise for CCCCCCCCCCCCCCCCN(CC)CC
A. criterion not met

Q. One more compound: N#CSCc1c(Cl)cccc1Cl
A. criterion not met

Q. Same thing, different compound: CC1OC(OC2C(OC3CCC4(C)C(CCC5(C)C4CC=C4C6CC(C)(C)CCC6(CO)C(O)CC45C)C3(C)C)OC(C(=O)O)C(OC3OC(COC4OC(CO)C(O)C(O)C4O)C(O)C(O)C3O)C2O)C(O)C(O)C1O (stereo not given)
A. criterion not met

====

system: UACC-257 melanoma; test: NCI-60 one-dose screen, 48 h (100 = growth as untreated, 0 = no growth, -100 = all killed); details: 10 µM unless noted
Compounds without any hit were thinned out: in the full panel of roughly 83,000, 20% have a hit. The source made the active and inactive calls. How the source made its calls: active means growth percent below 10; inactive means the rest.
readout.name: growth

Q. Data request, read-out growth, for COc1ccc(-c2cscc2N)cc1
A. 41.2% [100 µM] (inactive)

Q. Please answer likewise for O=[N+]([O-])c1ccc(N=Nc2ccc(O)cc2O)cc1
A. 43.7% (inactive)

Q. Please give the result for S=C(NCCNC(=S)[S][Sn]([c]1ccccc1)([c]1ccccc1)[c]1ccccc1)[S][Sn]([c]1ccccc1)([c]1ccccc1)[c]1ccccc1 too.
A. -100% (active)

Q. Proceed to O=C(CC1(O)C(=O)Nc2c(Cl)ccc(Cl)c21)c1ccc(Cl)cc1Cl (stereo unspecified)
A. 78.8% (inactive)

Q. Another: Nc1ccc(SSc2ccc(N)cc2)cc1
A. 86.1% (inactive)

Q. Item: CCC(CC)COC(=O)c1ccc(O)c(O)c1
A. 86.4% (inactive)
